- Test system: T-47D breast
- METHOD_NOTES: NCI-60 one-dose screen, 48 h (100 = growth as untreated, 0 = no growth, -100 = all killed)
- PARTICULARS: 10 µM
Compounds without any hit were thinned out: in the full panel of roughly 83,000, 20% have a hit.
// boundary case: growth equal to 60% maps to Not satisfied; strictly smaller maps to Satisfied

In: Dear colleague, could you confirm whether growth of OC(CNC1CCCC1)Cn1c2ccccc2c2ccccc21 (stereo not given) falls below 60%? Thanks.
Out: Satisfied

In: # TODO verify growth < 60% strictly for this molecule: CC(C)/C(=N/O)c1ccccc1
Out: Not satisfied

In: Is it true that growth reported for Cc1cc(C)c2nc(C)c(C)[n+]([O-])c2c1 is less than 60%?
Out: Not satisfied

In: In plain terms, does O=c1c2cccc3c(Nc4ccc(Br)cn4)ccc(c32)c2nc3ccccc3n12 come in under 60% for growth?
Out: Satisfied

In: Report whether reported growth is lower than 60% (strictly) for C/C(=N\NC(=S)N1CCCC1)c1ccccn1
Out: Satisfied

In: growth strictly < 60% for this molecule? COc1ccc(-c2cc(=O)n(-c3nc4ccccc4[nH]3)[nH]2)cc1OC
Out: Not satisfied

In: Find out if reported growth for O=C(NC1CCN(Cc2ccccc2)CC1)c1cc(-c2ccncc2)nc2ccc(Cl)cc12 is less than 60%
Out: Satisfied

In: Does Oc1ccc(/C=N\Nc2ccccn2)c(O)c1 have growth strictly under 60%?
Out: Satisfied

In: For Nc1c(CNCc2nnn(Cc3ccccc3)c2N)nnn1Cc1ccccc1 , is the recorded growth below the cut-off of 60%?
Out: Not satisfied

In: Answer whether the molecule COc1cc(N=C2C(=O)N(Cc3ccccc3)c3ccccc32)cc(OC)c1OC has growth strictly less than 60%
Out: Not satisfied

In: Bench note: check whether COc1cc(/C=C/C(=O)c2cc(-c3ccc(C(F)(F)F)cc3)ccc2O)cc(OC)c1OC shows growth below 60%
Out: Satisfied

In: A record lists CCOC(=O)CNC(=O)Nc1ccc(Oc2ccc(NC(=O)NCC(=O)OCC)cc2)cc1 . Is its growth below 60%?
Out: Not satisfied

In: Confirm or reject: growth of O=C1/C(=C/c2ccc([N+](=O)[O-])s2)Oc2ccc(Cl)cc21 lies strictly below 60%
Out: Satisfied

In: growth under 60%? Item: O=C/C=C/c1ccc([N+](=O)[O-])cc1Cl
Out: Not satisfied

In: Dear reviewer, please state whether COc1cc(CSc2nc3ccc(C)cc3c(=O)n2Cc2ccccc2)cc(OC)c1OC has growth strictly beneath 60%.
Out: Satisfied

In: Decide: growth of N#Cc1ccc(-n2cnc(NC(=O)[C@H]3CCN(C#N)C3)c2)cc1 strictly below 60%?
Out: Satisfied

In: Strictly below 60% in growth? O=C(N/N=C\c1cc(Cl)ccc1O)c1ccncc1
Out: Satisfied

In: Please determine if O=C(c1ccccc1)C(Sc1ccccc1)c1ccccc1 (stereo not given) is below 60% in terms of growth.
Out: Not satisfied

In: Confirm or reject: growth of O=C1/C(=C/c2ccc(O)cc2)Cc2ccc(Cl)cc21 lies strictly below 60%
Out: Not satisfied

In: Does CCCCCCCCCCN=C(c1ccc(N(C)C)cc1)c1ccc(N(C)C)cc1 have growth strictly under 60%?
Out: Satisfied

In: Criterion: growth strictly below 60%. Is it met by Cc1ccc2nc(-c3ccc(OCC(=O)N=Nc4c(O)[nH]c5ccccc45)cc3)[nH]c2c1 ?
Out: Satisfied

In: Threshold test, growth < 60%: COc1ccc(C2C=C(c3ccc(Cl)c(Cl)c3)N=C3SC(C)=CN32)cc1 (stereo not given)
Out: Not satisfied

In: Could you please tell me whether growth recorded for Cc1ccc(C2C=C(c3ccc(Cl)cc3)N=C3SC=CN32)c(Br)c1 (stereo not given) is less than 60%?
Out: Satisfied

In: Item Cc1cc(C#Cc2ccccc2)ccc1-n1c(/C=C/c2cc(O)ccc2O)nc2ccccc2c1=O : growth beneath 60%, strictly?
Out: Satisfied

In: Quick check: growth of Cc1ccc(-c2cc(-c3cccc(Nc4ccnc5cc(Cl)ccc45)c3)nc3nc(N)[nH]c(=O)c23)cc1 under 60%?
Out: Satisfied

In: For NC(=O)C12C(=O)NC(=O)C1(C(=O)O)C21CCCC1 (stereo not given) , is the recorded growth below the cut-off of 60%?
Out: Not satisfied

In: Just wondering, is growth of Cc1c(C(=O)N[C@H](CO)Cc2ccccc2)[nH]c2ccc(Cl)cc2c1=O below 60%?
Out: Not satisfied

In: is_below(growth, 60%) for Cc1cccc2c1O/C(=C\c1ncc([N+](=O)[O-])n1C)C2=O ?
Out: Not satisfied

In: Does Cn1cnc([N+](=O)[O-])c1/C=C1\Oc2ccc(Cl)cc2C1=O have growth strictly under 60%?
Out: Not satisfied

In: For O=c1[nH]c(=O)n(C2C[C@@H](O)[C@@H](CO)O2)cc1F (stereo not given in full) , is the recorded growth below the cut-off of 60%?
Out: Satisfied

In: Is 60% strictly greater than the molecule's reported growth? molecule: CCC(CCNc1cc(OC)cc2cccnc12)CN1C(=O)c2ccccc2C1=O (stereo not given)
Out: Satisfied

In: Please indicate whether the reported growth of FC(F)(F)c1ccc(-c2cnc(Cl)nc2NCc2cc(C(F)(F)F)cc(C(F)(F)F)c2)cc1 is strictly below 60%.
Out: Satisfied

In: Quick check: growth of O=C1/C(=C/c2ccc(O)cc2)Oc2ccc(Cl)cc21 under 60%?
Out: Not satisfied

In: Hi there! Is growth for Cc1cc(OI)c(C(C)C)cc1-c1cc(C(C)C)c(OI)cc1C below 60%, do you know?
Out: Not satisfied

In: Just wondering, is growth of C=C[C@]1(C)C=C2C(=O)[C@@]3(O)OC(=O)[C@@]4(CCCC(C)(C)[C@H]34)[C@@]2(O)CC1 below 60%?
Out: Satisfied

In: Bench note: check whether COc1ccc(OC)c([N+](=O)[O-])c1C=O shows growth below 60%
Out: Satisfied

In: Dear colleague, could you confirm whether growth of COc1ccc(COC(=O)CC(C)C)cc1 falls below 60%? Thanks.
Out: Not satisfied

In: Strictly below 60% in growth? Cn1cnc([N+](=O)[O-])c1Sc1nnc(-c2ccccc2)c(-c2ccccc2)n1
Out: Satisfied

In: Record COc1cc(/C=C/C(=O)c2cc(-c3ccc(F)cc3)ccc2O)cc(OC)c1OC : is its growth strictly below 60%?
Out: Satisfied

In: Consider the molecule COc1cccc2c1O/C(=C\c1ncc([N+](=O)[O-])n1C)C2=O . Is its growth strictly less than 60%?
Out: Not satisfied

In: Decide: growth of Cc1ccc(NC(=O)/C=N/O)cc1C strictly below 60%?
Out: Not satisfied

In: Lab note: growth threshold 60%. Does this molecule come in strictly under it? CC(=O)Nc1nc(C)c(C(=O)NNC=O)s1
Out: Not satisfied

In: Below 60% on growth? Entry CC(=O)Nc1nc(C)c(C(=O)N/N=C/c2cccn2C)s1
Out: Not satisfied
